# System: PTEN
# test: 2-14-2 gapped oligomers targeted to PTEN (Example 50), in vivo single injection, liver mRNA
# condition description: injected once 2 μmol/kg, 72 hrs
[6'R-Me-BNA] = 6-(R)-CH3 bicyclic nucleoside (R-constrained ethyl); [6'S-cMOE] = 6-(S)-CH2-O-CH3 bicyclic nucleoside; e = 2'-O-(2-methoxyethyl) (MOE); [5mC] = 5-methylcytosine; d = 2'-deoxy (DNA)

- substance: "ISIS NO. 400522: CRURGCTAGCCTCTGGATURUR; 6-(R)-CH3 BNA 2-14-2 gapped oligomer targeted to PTEN (CUGCTAGCCTCTGGATUU; sugars from the 5' end [6'R-Me-BNA]2 d14 [6'R-Me-BNA]2, backbone and methylation of C not given here)"
  % UTC, %: 18
- substance: "ISIS NO. 400525: CSUSGCTAGCCTCTGGATUSUS; 6-(S)-CH2-O-CH3 BNA 2-14-2 gapped oligomer targeted to PTEN (CUGCTAGCCTCTGGATUU; sugars from the 5' end [6'S-cMOE]2 d14 [6'S-cMOE]2, backbone and methylation of C not given here)"
  % UTC, %: 21
- substance: "ISIS NO. 394420: MeCeTeGCTAGCCTCTGGATTeTe; 2′-O-MOE 2-14-2 gapped oligomer targeted to PTEN (CTGCTAGCCTCTGGATTT; sugars from the 5' end e2 d14 e2, [5mC] at 1, backbone not given here) [reference compound]"
  % UTC, %: 79

----------
# Tested on: PTEN
# test: 2-14-2 gapped oligomers targeted to PTEN (Example 50), in vivo single injection, liver mRNA
# condition description: injected once 10 μmol/kg, 72 hrs
Strand notation (5' to 3'): a small letter for the sugar, then the base; units joined by * are phosphorothioate-linked, units joined directly phosphodiester-linked; [ ] holds rarer units or linkages, { } end groups; capitals alone tell only the bases. [cMOE-R-N] = 6-(R)-CH2-O-CH3 BNA nucleoside (4'-CH(CH2OCH3)-O-2' bridge, R configuration) (N: the base); [6'R-Me-BNA] = 6-(R)-CH3 bicyclic nucleoside (R-constrained ethyl); [6'S-cMOE] = 6-(S)-CH2-O-CH3 bicyclic nucleoside; e = 2'-O-(2-methoxyethyl) (MOE); k = constrained ethyl (cEt); [5mC] = 5-methylcytosine; d = 2'-deoxy (DNA)

- substance: "ISIS NO. 400525: CSUSGCTAGCCTCTGGATUSUS; 6-(S)-CH2-O-CH3 BNA 2-14-2 gapped oligomer targeted to PTEN (CUGCTAGCCTCTGGATUU; sugars from the 5' end [6'S-cMOE]2 d14 [6'S-cMOE]2, backbone and methylation of C not given here)"
  assay target: "PTEN"
  % UTC (%): 3
- substance: "ISIS NO. 400523: CSUSGCTAGCCTCTGGATUSUS; 6-(S)-CH3 BNA 2-14-2 gapped oligomer targeted to PTEN (CUGCTAGCCTCTGGATUU; sugars from the 5' end k2 d14 k2, backbone and methylation of C not given here)"
  assay target: "PTEN"
  % UTC (%): 4
- substance: "ISIS NO. 394420: MeCeTeGCTAGCCTCTGGATTeTe; 2′-O-MOE 2-14-2 gapped oligomer targeted to PTEN (CTGCTAGCCTCTGGATTT; sugars from the 5' end e2 d14 e2, [5mC] at 1, backbone not given here) [reference compound]"
  assay target: "PTEN"
  % UTC (%): 26
- substance: "ISIS NO. 400522: CRURGCTAGCCTCTGGATURUR; 6-(R)-CH3 BNA 2-14-2 gapped oligomer targeted to PTEN (CUGCTAGCCTCTGGATUU; sugars from the 5' end [6'R-Me-BNA]2 d14 [6'R-Me-BNA]2, backbone and methylation of C not given here)"
  assay target: "PTEN"
  % UTC (%): 4
- substance: "ISIS NO. 400524: CRURGCTAGCCTCTGGATURUR; 6-(R)-CH2-O-CH3 BNA 2-14-2 gapped oligomer targeted to PTEN ([cMOE-R-C]*[cMOE-R-U]*dG*dC*dT*dA*dG*dC*dC*dT*dC*dT*dG*dG*dA*dT*[cMOE-R-U]*[cMOE-R-U]; antisense)"
  assay target: "PTEN"
  % UTC (%): 4
